target: L-type calcium channel (dihydropyridine site), Cav1.2 alpha-1C (Rattus norvegicus, UniProt P22002); experiment: Inhibitor of CA+/DHPSI/R in the Eurofins Cerep SafetyScreen44 (BI) by Radioactive Assay (Cerep_161); format: protein assay; design: scale not given: the % may be the effect or the level left; details: rat brain, probe [3H](+)PN200-110, compound concentration 10 uM, read-out: % Ctrl
Sequence (P22002 whole entry): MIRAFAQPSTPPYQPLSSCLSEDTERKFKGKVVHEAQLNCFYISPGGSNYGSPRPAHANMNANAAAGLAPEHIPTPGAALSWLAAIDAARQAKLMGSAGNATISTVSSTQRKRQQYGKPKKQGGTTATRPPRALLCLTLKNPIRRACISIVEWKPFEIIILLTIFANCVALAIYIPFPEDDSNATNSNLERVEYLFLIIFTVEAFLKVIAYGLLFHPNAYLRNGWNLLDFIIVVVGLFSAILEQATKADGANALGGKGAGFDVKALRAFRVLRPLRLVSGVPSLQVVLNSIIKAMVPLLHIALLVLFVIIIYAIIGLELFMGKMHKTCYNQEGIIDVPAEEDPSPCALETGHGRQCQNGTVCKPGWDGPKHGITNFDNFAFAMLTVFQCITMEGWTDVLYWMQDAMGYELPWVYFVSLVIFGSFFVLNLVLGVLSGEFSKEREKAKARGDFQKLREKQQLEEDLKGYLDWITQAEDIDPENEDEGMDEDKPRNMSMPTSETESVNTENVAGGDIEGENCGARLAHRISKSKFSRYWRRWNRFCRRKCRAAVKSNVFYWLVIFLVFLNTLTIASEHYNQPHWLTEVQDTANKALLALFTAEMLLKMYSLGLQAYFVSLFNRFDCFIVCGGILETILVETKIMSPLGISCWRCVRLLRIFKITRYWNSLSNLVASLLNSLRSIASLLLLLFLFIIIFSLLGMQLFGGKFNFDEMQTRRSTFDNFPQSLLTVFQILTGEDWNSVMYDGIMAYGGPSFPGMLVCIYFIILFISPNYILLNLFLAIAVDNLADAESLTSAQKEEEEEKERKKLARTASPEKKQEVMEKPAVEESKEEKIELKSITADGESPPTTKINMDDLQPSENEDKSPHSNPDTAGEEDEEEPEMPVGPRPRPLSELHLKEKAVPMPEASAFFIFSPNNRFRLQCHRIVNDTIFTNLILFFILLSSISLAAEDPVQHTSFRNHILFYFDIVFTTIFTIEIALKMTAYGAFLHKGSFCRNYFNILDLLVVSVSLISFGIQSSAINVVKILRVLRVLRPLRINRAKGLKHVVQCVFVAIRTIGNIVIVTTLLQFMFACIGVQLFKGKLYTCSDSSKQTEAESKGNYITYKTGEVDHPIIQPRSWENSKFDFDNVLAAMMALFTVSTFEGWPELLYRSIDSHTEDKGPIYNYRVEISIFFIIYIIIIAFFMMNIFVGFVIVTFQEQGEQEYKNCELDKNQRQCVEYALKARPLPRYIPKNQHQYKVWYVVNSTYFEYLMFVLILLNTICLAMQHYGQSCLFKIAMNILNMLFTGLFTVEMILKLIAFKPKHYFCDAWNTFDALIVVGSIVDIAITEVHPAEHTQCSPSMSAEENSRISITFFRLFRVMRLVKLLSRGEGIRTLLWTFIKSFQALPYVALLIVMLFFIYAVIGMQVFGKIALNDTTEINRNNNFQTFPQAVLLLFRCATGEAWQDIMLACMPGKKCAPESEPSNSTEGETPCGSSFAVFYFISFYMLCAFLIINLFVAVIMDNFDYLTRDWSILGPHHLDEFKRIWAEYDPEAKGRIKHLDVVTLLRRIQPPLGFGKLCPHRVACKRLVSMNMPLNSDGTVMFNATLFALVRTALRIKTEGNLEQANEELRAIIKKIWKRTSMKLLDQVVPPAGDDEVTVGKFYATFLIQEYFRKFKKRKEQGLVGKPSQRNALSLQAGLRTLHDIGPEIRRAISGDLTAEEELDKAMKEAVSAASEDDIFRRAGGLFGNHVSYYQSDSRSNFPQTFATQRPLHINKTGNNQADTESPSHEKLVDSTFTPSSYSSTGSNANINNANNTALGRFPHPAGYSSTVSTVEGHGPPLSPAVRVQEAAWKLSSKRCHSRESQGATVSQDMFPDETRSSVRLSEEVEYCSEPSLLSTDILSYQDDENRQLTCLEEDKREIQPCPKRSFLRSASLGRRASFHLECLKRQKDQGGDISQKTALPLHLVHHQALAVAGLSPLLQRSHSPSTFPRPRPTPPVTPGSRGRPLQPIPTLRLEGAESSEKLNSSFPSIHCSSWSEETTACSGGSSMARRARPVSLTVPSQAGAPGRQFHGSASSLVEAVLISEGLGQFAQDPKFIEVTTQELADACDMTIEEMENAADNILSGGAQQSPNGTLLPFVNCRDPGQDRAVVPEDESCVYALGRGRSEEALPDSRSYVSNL

# Record Smiles, activity at 10 µM
measured = [
    ("N=C(N)NCCC[C@@H](NC(=O)C(c1ccccc1)c1ccccc1)C(=O)NCc1ccc(CNC(N)=O)cc1", "70% (not active)"),
]

----------
target: hERG (KCNH2) (Homo sapiens, UniProt Q12809); experiment: Inhibitor of HERG_DOFETILIDE in the Eurofins Cerep SafetyScreen44 (BI) by Scintillation counting (Cerep_4094); set-up: scale not given: the % may be the effect or the level left; settings: probe [3H] dofetilide, compound concentration 10 uM, read-out: % Ctrl
Sequence (Q12809 whole entry): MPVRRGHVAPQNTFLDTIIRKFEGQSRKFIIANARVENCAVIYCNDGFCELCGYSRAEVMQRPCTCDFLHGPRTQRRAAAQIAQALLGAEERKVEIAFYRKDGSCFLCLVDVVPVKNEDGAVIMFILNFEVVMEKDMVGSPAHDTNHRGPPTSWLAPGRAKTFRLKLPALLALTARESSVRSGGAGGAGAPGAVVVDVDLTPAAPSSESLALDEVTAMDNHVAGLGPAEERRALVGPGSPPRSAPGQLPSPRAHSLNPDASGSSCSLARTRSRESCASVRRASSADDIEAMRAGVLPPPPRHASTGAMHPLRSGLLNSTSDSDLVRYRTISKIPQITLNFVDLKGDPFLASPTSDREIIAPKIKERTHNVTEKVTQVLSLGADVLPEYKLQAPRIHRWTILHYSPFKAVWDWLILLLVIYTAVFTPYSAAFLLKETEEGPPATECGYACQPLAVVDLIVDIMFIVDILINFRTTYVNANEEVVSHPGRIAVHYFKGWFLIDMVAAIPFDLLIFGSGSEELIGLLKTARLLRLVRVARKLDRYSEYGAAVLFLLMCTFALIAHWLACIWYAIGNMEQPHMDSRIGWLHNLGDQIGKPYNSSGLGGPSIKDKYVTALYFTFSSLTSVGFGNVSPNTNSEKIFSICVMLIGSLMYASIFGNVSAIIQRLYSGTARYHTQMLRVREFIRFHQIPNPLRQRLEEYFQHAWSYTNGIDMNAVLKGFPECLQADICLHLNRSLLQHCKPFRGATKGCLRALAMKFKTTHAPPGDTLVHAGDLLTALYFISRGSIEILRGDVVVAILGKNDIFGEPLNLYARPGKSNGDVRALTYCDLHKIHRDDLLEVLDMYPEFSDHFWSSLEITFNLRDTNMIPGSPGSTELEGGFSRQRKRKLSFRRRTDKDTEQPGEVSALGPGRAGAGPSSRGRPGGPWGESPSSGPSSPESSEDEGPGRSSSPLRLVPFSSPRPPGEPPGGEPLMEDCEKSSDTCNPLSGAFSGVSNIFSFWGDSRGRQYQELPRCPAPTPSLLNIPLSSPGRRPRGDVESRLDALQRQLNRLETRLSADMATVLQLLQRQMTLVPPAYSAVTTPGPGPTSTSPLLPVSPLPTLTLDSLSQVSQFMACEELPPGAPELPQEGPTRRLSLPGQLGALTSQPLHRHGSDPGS
Property Measured: activity at 10 µM

# Record Smiles, Result
rows = [
    ("N=C(N)NCCC[C@@H](NC(=O)C(c1ccccc1)c1ccccc1)C(=O)NCc1ccc(CNC(N)=O)cc1", "79% (not active)"),
]

----------
molecular target: L-type calcium channel (dihydropyridine site), Cav1.2 alpha-1C (Rattus norvegicus); assay: Activity against CA+/DHPSI/RA in the Eurofins Panlabs screen (BI) by Radioactive Assay; conditions: compound concentration 10 uM, read-out: % Ctrl

# Record Smiles, activity at 10 µM
records = [
    ("N=C(N)NCCC[C@@H](NC(=O)C(c1ccccc1)c1ccccc1)C(=O)NCc1ccc(CNC(N)=O)cc1", "82% (not active)"),
]
